Test: yeast display, Sf9 membrane polyspecificity reagent, FACS + sequencing; frameworks hold sequencing errors
Observed Property: polyreactivity (PSR sort gate)

Completed entries (count: 5):
QVQLVESGGGLVQAGGRLRLSCAASGRTFNVNVMGWYRQAPGKERELVAAIRYTGGSTYADSVKGRFTISRDNAKNTVYLQMNSLKPEDTALYYCNADTFFPFDHGMDYWGQGTQVTVSS: low polyreactivity
QVQLVESGGGLVQAGGSLRLSCAASGRILYRYAMGWYRQAPGKERELVAAITWRGGTTYYADSVKGRFTISRDNAKNTVYLQMNSLKPEYTAVYYCNADWWRTLESDFWGQGTQVTVSS: low polyreactivity
QVQLEESGGGLVQAGGSLRLSCAASGFTIGYNAKGWYRQATRKERELVAAIRSTGSTNYADSVKGRFTISRDYAKNTVYLQMNSLKPEDTAVYYGAAGRNAAIVYDYDYWGQGTQVTVSS: low polyreactivity
QVQLVESGGGLVQAGGSLRLSCAASGSIFTFYAMGWYRQAPGKERELVAAISYRGGSTYYADSVKGRFTISRDNAKNTVYLQMNSLKPEDTAVYYCAAARFPVFIQGYRMEYWGQGTQVTVSS: low polyreactivity
QVHLVESGGGLVQAGRSLRLICAASGSTFDYYAMGWYRQAPGKERELVAGIDSAGSTNYADSVKGRFTISRDNAKNTVYLQMNSLKTGRYRGLYCNVGKTITTYAFPTFDYWRQGTQVTVSS: low polyreactivity

Each sequence below has a reported value. Please supply its polyreactivity (PSR sort gate).
1. QVQLVESGGGLVQAGGSLRLSCAASGFIFETNAMGWYRQAPGKERELVAAISSRGGSTYYADSVKGRFTISRDNAKNTVYLQMNSLKPEDTAVYYCAAKLVVSYGQEYDYWGQGTHVTVSS
2. QVQHVESGGGLVQAGGSLRLSCAASGLTFHQYAMGWYRQAPGKERELVAAITGSGGSTYYADSVKGRVTISRDKAKNTVYLQMYSLKPEDTAVYYCAAKTYRRGGGYWGQGSQVTVSS

RESULT:
1. low polyreactivity
2. high polyreactivity

Hey, can you go through the list below and give me polyreactivity (PSR sort gate) for every item?
1. QVQLVESGGGLVQAGGSLRLSCAASGSTFYWYAMGWYRQAPGKERELVAAISRSSGSTYYADSVKGRFTISRDNAKNSVYLQMNSLKPEDTAVYYCAADYYLRSFVWTAYDSWGQGTQVTVSS
2. QVQVVESGGGLVQAGGSLRLSCAASGFIFFTYAKGWYRPAPGKERELVADISSRGGSTYYADSVKGRFTISRDNAKNTVYLQMNSLKPEDTAVYYCARTRFWLRYRLFDYWGQGTQVTVSS
3. HVQLVDSGGGLVQAGGSLRLSCAASGFIFRRYAMGWYRQAPGKERELVAAIRSDGSTNYADSVKGRFTISRDNAKNTVYLQLNSLKPEDTAVYYCAATYYSYTWFSQYYYWGQGTQVTVSS

RESULT:
high polyreactivity
low polyreactivity
high polyreactivity

QUERY: Output measured polyreactivity (PSR sort gate) for this item: QVQLVESGGGLVQAGGSLRLSCAASGRIFSRYTMGWYRQAPGKERELVAAISSRGGSTYYADSVKVRFTISRDNAKNTVYLQMNSLKPEDTAVYYCNTPSYSGSSPYDHWGQGTQVTVSS
RESULT: high polyreactivity
